Data credit: ChEMBL document CHEMBL1131919

# log10(IC50) annotations
target: UniProt:P62993; experiment: Inhibitory concentration against Growth factor receptor bound protein 2 in MDA-MB-453 cells
Sequence (P62993 whole entry): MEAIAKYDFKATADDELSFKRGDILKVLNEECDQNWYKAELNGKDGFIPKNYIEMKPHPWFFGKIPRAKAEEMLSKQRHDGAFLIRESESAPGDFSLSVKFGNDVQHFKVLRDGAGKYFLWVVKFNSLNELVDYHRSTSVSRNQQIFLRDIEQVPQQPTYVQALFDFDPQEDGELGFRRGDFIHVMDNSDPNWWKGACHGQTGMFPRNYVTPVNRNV
Form field - Quantity: IC50; Unit: µM; Scale: log10

NC(=O)C[C@H](NC(=O)C1(NC(=O)[C@@H](Cc2ccc(CC(=O)O)cc2)NC(=O)C(=O)O)CCCCC1)C(=O)NCCCc1cccc2ccccc12; -0.22
NC(Cc1ccc(CC(=O)O)cc1)C(=O)O (stereo not given); 1.81
CC(=O)N[C@H](Cc1ccc(CC(=O)O)cc1)C(=O)NC1(C(=O)N[C@@H](CC(N)=O)C(=O)NCCCc2cccc3ccccc23)CCCCC1; 0.40
NC(Cc1ccc(OCC(=O)O)cc1)C(=O)O (stereo not given); 0.40
NC(Cc1ccc(C(F)(F)C(=O)O)cc1)C(=O)O (stereo not given); 1.45

Lookup: For the molecule "CC(=O)N[C@H](Cc1ccc(OP(=O)(O)O)cc1)C(=O)NC1(C(=O)N[C@@H](CC(N)=O)C(=O)NCCCc2cccc3ccccc23)CCCCC1" , what log10(IC50) is on record?
Found: -2.15

Lookup: For the molecule "NC(=O)C[C@H](NC(=O)C1(NC(=O)[C@@H](Cc2ccc(C(F)(F)C(=O)O)cc2)NC(=O)C(=O)O)CCCCC1)C(=O)NCCCc1cccc2ccccc12" , what log10(IC50) is on record?
Found: 0.30

Lookup: For the molecule "CC(=O)N[C@H](Cc1ccc(OCC(=O)O)cc1)C(=O)NC1(C(=O)N[C@@H](CC(N)=O)C(=O)NCCCc2cccc3ccccc23)CCCCC1" , what log10(IC50) is on record?
Found: 1.81

Lookup: For the molecule "CC(=O)N[C@H](Cc1ccc(C(F)(F)C(=O)O)cc1)C(=O)NC1(C(=O)N[C@@H](CC(N)=O)C(=O)NCCCc2cccc3ccccc23)CCCCC1" , what log10(IC50) is on record?
Found: 1.45

Lookup: For the molecule "NC(=O)C[C@H](NC(=O)C1(NC(=O)[C@@H](Cc2ccc(OCC(=O)O)cc2)NC(=O)C(=O)O)CCCCC1)C(=O)NCCCc1cccc2ccccc12" , what log10(IC50) is on record?
Found: 1.18
